protocol-text: label from the status in PepcDB records

polymer-sequence: MLKRSIRLLTMGIIWFAISVANSTGRAEKSSDLERYLNTIQDPENIDKPFQPLQAGEYDQAYDYYIQGYYLKAFREALRRAEQNDPFAQTLVARIYMEGCAVPIDGARAALWFGRAAKQGEPQAQLRYGLMLFDGNFIAQNQEIGEEFIRKAVDAGVKEAYYYYGQLLLYKASREKQALAGVFSQSQENEAIDQALKWFLKGAALGDAAAAFAAAKILSLGTLTRPKDDRNARKLMEVAAQNKHLEAQILLAQWLVQGRGGETDFQRAFHLLLSNATKMIAPAQVALARLYRDGIGTKGDIVRAAAWYMLAKHAKIQAPDLEMMLEGMDHAQLEEARKEIIKLLPIF
protein production: failed

polymer-sequence: MRINTRRKKWAAVAVVTLVSVIASVIVTVIVVGTLDPQSLRPAIIVPLLVAPLATHWGAERLLEIDKLNQQLAHLNRIDQMTQLYNRACLLEKLEQEPEEAGMILIADIDHFKQINDTYGHDVGDLVIIEVARVLQRSSLPEGIAARFGGEEFVIYVPRLDLEAAEFRAEAIRQAVEAQSVMIDGRKLSCTISIGIEIRQMQENVGDVLKRADEALYRAKAQGRNQVVAARRLARAGKSRETAQARRAP
protein production: failed

polymer-sequence: MNENHLLDLEEQKTDLGRVEISPEVIEVIAGIAASEVEGVATMRGNFAAGVAEKLGYKNHGKGVKVDLNDEGIIVDVSVIILYGVSVPEVAKKIQQNIKQALQTMTAIELQSINVHIVGVHFEAVDGEEETKLEHHHHHH
protein production: failed

----------
protocol-text: label from the status in PepcDB records

polymer-sequence: MSFKNDHKYQWKDMQGKDFLLPFIYLIGNFCLSIVILTIMIGINETQGKNNANFNANFSGTPGILMEMIAFIIIFALWILFHRHSFRQSWKQGLQNIKQHWKLIVITFIVIIVFKEIYPYLVNAFAPEHWKFEETQNDKMVEEMFATPVSTILAFFSIVIIAPMTEEFLFRHLIIGELGKKLNFYVMSVISIIVFASLHVTEAKSPLEIVMYLAIAVGIVYVYMKSQRSLAVAIALHALNNLLAYIFMIIM
protein production: failed
//
polymer-sequence: AAGAVRTDPVIHLHGSRSEDEPTTVLVHAGTATIMPYRALITEIRRRSPGLAEVVGVEVPDLSGFLAAPPDGLIERMAADYARALTADGRHRFHVVGYCLGGLIATEVARNLAESGAEVESLTVISSHSPRFRLDDELLAEYSFAVMMGIDPADLGFPDDQYRVAAAADTVLAASPGVLPDGGLAALGGEFEDVASRFRRLADVPRATRIARMCEAVPASAGTYEPDHMTRLFLAFRQSVFAITRYRAEPYAGDITFLRHDGAYPFPGSKDAVTAYWEELTLGDLDIVDIGGDHYSCLSVEHAPGILKTLGELTQGAITR
protein production: failed

----------
protocol-text: label from the status in PepcDB records
readout-label: protein production

polymer-sequence: SDSPEQESADDALKRIVDGFQHFRREVFPEQQALFKKLANSQRPRAMFITCADSRIVPELITQSSPGDLFVTRNVGNVVPPYGQMNGGVSTAIEYAVLALGVHHIIVCGHSDCGAMRAVLDPQTLERMPTVKAWLRHAEVARTVVADNCDCGASHDTLGVLTEENVVAQLDHLRTHPSVASRLASGQLFIHGWVYDIESAQIRAYDAKQGRFLPLDGEHPVPMATPAPRYLSS
protein production: failed
--
polymer-sequence: MSLGQQQVTLFWSGAITGPTSDAGAPYGAAVEDYCKWANERKLVPGVVFNCVVRDDQYNNANTQRFFEEAVDRFKIPVFLSYATGANLQLKPLIQELRIPTIPASMHIELIDPPNNDYIFLPTTSYSEQVVALLEYIAREKKGAKVALVVHPSPFGRAPVEDARKAARELGLQIVDVQEVGSGNLDNTALLKRFEQAGVEYVVHQNVAGPVANILKDAKRLGLKMRHLGAHYTGGPDLIALAGDAAEGFLWATSFYMAHEDTPGIRLQKEIGRKYGRPENFIESVNYTNGMLAAAIAVEAIRRAQERFKRITNETVYQAIVGMNGPNAFKPGFAVSTKQGVEIDFTKSEHTGAEGLRILEAKGGRFVPVTEPFTSALFRKVHYGEGHHHHHH
protein production: not failed
--
polymer-sequence: VNATQRKLLMQLVIGAAWVDGDLDQPERQYLQTLLERQKLDHDPDLLVLLETPIGLPQLEAWLVTFLQGTSTPTRLAALATIANLLMADGVVNRSEHSLLDEIHSLMAQIPASRDEEEYRQAAPGLVQGLSGLVRRALNGAKHLFQ
protein production: not failed
--
polymer-sequence: MTEIDSNLKDAQSVAVSGHVRPDGDCVGSTLAVYNYIKDYYPDIKARLYLEPSPNIFKFMQRADEIDSSYADDTVYDLFIACDCSDTGRLGSAAKYFESAKRTLCIDHHVTNGAFADTNYIFPDASSTCELVFELLPKERITIQIAECIYTGMVHDTGVFQYSCTSKKTMDIAGSLMEMGIDYSRIIDDTFYTKTFAQNKIMGQALLNAALYLNGDVILSAVSRAEMEKYDVLPKHLDGIVNQLRVTKDIKVAVFLYENEDGTYKGSLRVNGDYDVAKVASVFGGGGHVKAAGFTIEGPLEVATDRILTAIKDNI
protein production: failed
--
polymer-sequence: MTLPSTPMPPAGSRKILLDDFQHVGSESHLGQCVNRSWTRHNCGHLENASIICTSEGMALSPHLDGNRQPSNLDNLREKAFLYQRHQHLLKFHHQLPAAGACMEVRLLNGTGRCLGRVEVLIQGTWGTVCDHFWNLAEAAVVCRQLQCGQAMAAHFGASSGKVLLDDMQCVGSKSHLGRCVHRGWARHNCGHLEDASVICAGEGLVVNLHLEGCF
protein production: failed

Could you now look at the following sequence, please?
Task: // lookup protein production for `MTEIYTSVLSYRLLEGKAYSDADTRSLDRMMRSIDEFFSANPGYINFHIYRSYRTDSDVIFWYSSRNPDLMILAKERVQASMRPIAVSSFSSISIYDESPYNAMNKKLEDSLRLPPLRYFVAYPMSKTPDWYLLDFDTRKEIMHEHIKMALNHPDEKGIRSYTTYSFGIGDQEFVVLYEIPDIAAWSRVTEKLREARARKWIIKETPILLGRLVDAGDIAGFLL`
Result: not failed
